- Tested on: Bipolaris oryzae
- method: Antifungal activity against Bipolaris oryzae infected in fifth-leaf stage of rice plant assessed as control of brown spot disease at 9 ug/ml treated as foliar application after 6 days
- Format: functional
Please respond with reported Activity for every item in the list.
# unit: % | format: bare number

Query: Fetch value of Activity on Bipolaris oryzae for CC(C)[C@H]1CC[C@H](Cc2ccc(Cl)cc2)[C@@]1(O)Cn1cncn1 (racemic) .
Reply: 71

Query: Fetch value of Activity on Bipolaris oryzae for CC(C)[C@@H]1CC[C@H](Cc2ccc(Cl)cc2)[C@@]1(O)Cn1cncn1 (racemic) .
Reply: 86

Query: Fetch value of Activity on Bipolaris oryzae for CC(C)[C@H]1CC[C@@H](Cc2ccc(Cl)cc2)[C@@]1(O)Cn1cncn1 (racemic) .
Reply: 53

Query: Fetch value of Activity on Bipolaris oryzae for CC(C)[C@@H]1CC[C@@H](Cc2ccc(Cl)cc2)[C@@]1(O)Cn1cncn1 (racemic) .
Reply: 25

###

- Test system: Oryza sativa
- method: Growth inhibition of Oryza sativa (rice) assessed as growth rate by measuring first sheath length at 250 ug/ml treated as seed treatment 24 hr before emergence measured after 10 days relative to control
- Assay type: organism-based
- Set-up: scale not given: the % may be the effect or the level left
- condition-set: in vivo, 240 h
Please respond with reported Activity for every item in the list.
# unit: % | format: bare number

Query: Tell us which Activity value is on record for CC(C)[C@H]1CC[C@H](Cc2ccc(Cl)cc2)[C@@]1(O)Cn1cncn1 (racemic)
Reply: 90.7

Query: Tell us which Activity value is on record for CC(C)[C@@H]1CC[C@@H](Cc2ccc(Cl)cc2)[C@@]1(O)Cn1cncn1 (racemic)
Reply: 91.7

Query: Tell us which Activity value is on record for CC(C)[C@H]1CC[C@@H](Cc2ccc(Cl)cc2)[C@@]1(O)Cn1cncn1 (racemic)
Reply: 82.5

Query: Tell us which Activity value is on record for CC(C)[C@@H]1CC[C@H](Cc2ccc(Cl)cc2)[C@@]1(O)Cn1cncn1 (racemic)
Reply: 98.3

###

- System: Fusarium fujikuroi
- method: Antifungal activity against Fusarium fujikuroi infected in rice plant assessed as control of bakanae disease at 18 ug/ml treated as seed treatment after 2 weeks
- Assay type: functional
Please respond with reported Activity for every item in the list.
Hey, just the number and the unit after it is fine.

Query: Tell us which Activity value is on record for CC(C)[C@H]1CC[C@H](Cc2ccc(Cl)cc2)[C@@]1(O)Cn1cncn1 (racemic)
Reply: 52.1%

Query: Tell us which Activity value is on record for CC(C)[C@@H]1CC[C@@H](Cc2ccc(Cl)cc2)[C@@]1(O)Cn1cncn1 (racemic)
Reply: 0%

Query: Tell us which Activity value is on record for CC(C)[C@@H]1CC[C@H](Cc2ccc(Cl)cc2)[C@@]1(O)Cn1cncn1 (racemic)
Reply: 61.2%

Query: Tell us which Activity value is on record for CC(C)[C@H]1CC[C@@H](Cc2ccc(Cl)cc2)[C@@]1(O)Cn1cncn1 (racemic)
Reply: 9.7%

###

- Tested on: Fusarium fujikuroi
- method: Antifungal activity against Fusarium fujikuroi after 3 days
- Assay type: functional, organism-based
- condition-set: Fusarium fujikuroi, 72 h; read-out: EC50
property-name: EC50 (µg/mL)
# unit: µg/mL | format: bare number

Query: Tell us which EC50 value is on record for CC(C)[C@H]1CC[C@@H](Cc2ccc(Cl)cc2)[C@]1(O)Cn1cncn1
Reply: 10

Query: Tell us which EC50 value is on record for CC(C)[C@H]1CC[C@@H](Cc2ccc(Cl)cc2)[C@@]1(O)Cn1cncn1 (racemic)
Reply: 0.09

Query: Tell us which EC50 value is on record for CC(C)[C@@H]1CC[C@H](Cc2ccc(Cl)cc2)[C@@]1(O)Cn1cncn1
Reply: 0.03

Query: Tell us which EC50 value is on record for CC(C)[C@H]1CC[C@H](Cc2ccc(Cl)cc2)[C@@]1(O)Cn1cncn1
Reply: 0.03

Query: Tell us which EC50 value is on record for CC(C)[C@@H]1CC[C@@H](Cc2ccc(Cl)cc2)[C@@]1(O)Cn1cncn1 (racemic)
Reply: 0.9

Query: Tell us which EC50 value is on record for CC(C)[C@@H]1CC[C@@H](Cc2ccc(Cl)cc2)[C@]1(O)Cn1cncn1
Reply: 6
